Hey, just so you know, these numbers are from patent US20210188980A1.

# subject of test: T1, recombinant human LAG-3-his protein (Novoprotein) (human, UniProt P18627 23-450)
# T1 construct: Bought; also called huLAG-3; not shown: His tag
# T1 sequence (looked up): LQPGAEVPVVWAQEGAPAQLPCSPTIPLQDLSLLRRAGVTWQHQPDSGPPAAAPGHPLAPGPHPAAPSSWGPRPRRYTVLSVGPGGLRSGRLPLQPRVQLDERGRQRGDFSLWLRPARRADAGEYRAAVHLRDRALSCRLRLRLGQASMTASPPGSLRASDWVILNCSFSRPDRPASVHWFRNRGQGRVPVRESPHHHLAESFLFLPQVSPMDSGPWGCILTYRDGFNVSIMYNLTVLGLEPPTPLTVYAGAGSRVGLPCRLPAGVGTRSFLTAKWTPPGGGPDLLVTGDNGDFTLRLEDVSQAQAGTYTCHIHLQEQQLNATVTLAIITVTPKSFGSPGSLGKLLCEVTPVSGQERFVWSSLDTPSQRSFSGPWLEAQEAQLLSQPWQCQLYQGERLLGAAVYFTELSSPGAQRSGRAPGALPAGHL
# method: BLI Octet, Ab on AHC sensor, huLAG-3-his; test group 1
# Procedure: All 9 humanized antibodies (Table 25) and a chimeric antibody having the parental murine VH and VL domains (mAb747c) were ranked by dissociation rate constant (koff). Briefly, antibodies were characterized for affinities and binding kinetics by Octet RED96 biolayer interferometry (Pall FortéBio LLC). […] Binding was measured by dipping sensors into a single concentration of recombinant human LAG-3-his protein (Novoprotein). […]
Reported off-rate ratio to that of mAb747c values for a set of binders
Use % as the unit, but write only the number.

binder: B3-21-IgG (antibody, V domains shown, human IgG1/kappa constant domains) VH: EVQLVQSGAEVKKPGASVKVSCKASDFNIKDDYMHWVRQAPGQGLEWIGWIVPENGNTEYASKFQGRVTITADTSINTAYMELSRLRSDDTAVYYCTVYGDVWGQGTTVTVSS VL: DIQMTQSPSSLSASVGDRVTINCRAMQEISGYLSWLQQKPEGTIKRLIYAASTLDSGVPSRFSGSRSGSDYTLTISSLQPEDFATYYCLQYAYYPLTFGGGTKVEIK
result units: %
off-rate ratio to that of mAb747c: 132

binder: B3-46-IgG (antibody, V domains shown, human IgG1/kappa constant domains) VH: EVQLVQSGAEVKKPGASVKVSCKASGFNIKDDYMHWVRQAPGQGLEWIGWIVPENGLTEYASKFQGRVTITADTSINTAYMELSRLRSDDTAVYYCTVYGDYWGQGTTVTVSS VL: DIQMTQSPSSLSASVGDRVTINCRASQEISGYLSWLQQKPEGTIKRLIYATSTLDSGVPSRFSGSRSGSDYTLTISSLQPEDFATYYCLQYASYPLTFGGGTKVEIK
result units: %
off-rate ratio to that of mAb747c: 165

Please find the next binder below.
So what's the measured off-rate ratio to that of mAb747c for this one? mAb747c (antibody, V domains shown, also called mAb717c) VH: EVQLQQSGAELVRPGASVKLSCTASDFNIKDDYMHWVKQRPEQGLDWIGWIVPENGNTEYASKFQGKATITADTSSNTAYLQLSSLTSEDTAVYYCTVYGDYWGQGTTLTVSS VL: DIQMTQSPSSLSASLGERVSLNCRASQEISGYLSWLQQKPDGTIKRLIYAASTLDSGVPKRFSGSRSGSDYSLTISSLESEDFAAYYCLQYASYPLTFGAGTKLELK
100
